# test_target: Acid-sensing ion channel 3 (Homo sapiens) (UniProt Q9UHC3)
# protocol_summary: Inhibition of ASIC3 at 20 uM assessed as inhibition of peak current by patch clamp electrophysiology relative to baseline
measure_name: inhibition

Illustrative cases are given below, each with its answer.
compound: NC(N)=NC(=O)c1nc(Cl)c(N2CCOCC2)nc1N
test_target: Acid-sensing ion channel 3 (Homo sapiens) (UniProt Q9UHC3)
measure_name: inhibition
result: 60%
--
compound: N=C(N)NC(=O)c1nc(Cl)c(N2CCCCCC2)nc1N
test_target: Acid-sensing ion channel 3 (Homo sapiens) (UniProt Q9UHC3)
measure_name: inhibition
result: 51%
--
compound: NC(N)=NC(=O)c1nc(Cl)c(NCc2ccccc2F)nc1N
test_target: Acid-sensing ion channel 3 (Homo sapiens) (UniProt Q9UHC3)
measure_name: inhibition
result: 92%
--
compound: NC(N)=NC(=O)c1nc(Cl)c(N2CCCC2)nc1N
test_target: Acid-sensing ion channel 3 (Homo sapiens) (UniProt Q9UHC3)
measure_name: inhibition
result: 84%
--
compound: NC(N)=NC(=O)c1nc(Cl)c(NCc2ccc(Cl)cc2)nc1N
test_target: Acid-sensing ion channel 3 (Homo sapiens) (UniProt Q9UHC3)
measure_name: inhibition
result: 97%

stdin: Check Acid-sensing ion channel 3 (Homo sapiens) (UniProt Q9UHC3) data and give inhibition for `CCCNc1nc(N)c(C(=O)N=C(N)N)nc1Cl` .
stdout: 91%

stdin: # return inhibition of `CC(C)(C)Nc1nc(N)c(C(=O)N=C(N)N)nc1Cl` (system: Acid-sensing ion channel 3 (Homo sapiens) (UniProt Q9UHC3))
stdout: 48%

stdin: Provide inhibition, recorded with Acid-sensing ion channel 3 (Homo sapiens) (UniProt Q9UHC3), of `N=C(N)NC(=O)c1nc(Cl)c(NCCc2ccccc2)nc1N`
stdout: 94%

---

# protocol_summary: Drug level in Sprague-Dawley rat brain after 30 mins
# Type: ADME, tissue-based
# test_settings: read-out: Drug uptake
measure_name: concentration at 0.5 h (nM)
A number alone suffices; assume nM.

stdin: Given `NC(N)=NC(=O)c1ncc(-c2cccc(-c3ccccc3)c2)nc1N` , respond with its concentration at 0.5 h.
stdout: 79

---

# test_target: Acid-sensing ion channel 3 (Rattus norvegicus)
# Sequence (O35240 whole entry): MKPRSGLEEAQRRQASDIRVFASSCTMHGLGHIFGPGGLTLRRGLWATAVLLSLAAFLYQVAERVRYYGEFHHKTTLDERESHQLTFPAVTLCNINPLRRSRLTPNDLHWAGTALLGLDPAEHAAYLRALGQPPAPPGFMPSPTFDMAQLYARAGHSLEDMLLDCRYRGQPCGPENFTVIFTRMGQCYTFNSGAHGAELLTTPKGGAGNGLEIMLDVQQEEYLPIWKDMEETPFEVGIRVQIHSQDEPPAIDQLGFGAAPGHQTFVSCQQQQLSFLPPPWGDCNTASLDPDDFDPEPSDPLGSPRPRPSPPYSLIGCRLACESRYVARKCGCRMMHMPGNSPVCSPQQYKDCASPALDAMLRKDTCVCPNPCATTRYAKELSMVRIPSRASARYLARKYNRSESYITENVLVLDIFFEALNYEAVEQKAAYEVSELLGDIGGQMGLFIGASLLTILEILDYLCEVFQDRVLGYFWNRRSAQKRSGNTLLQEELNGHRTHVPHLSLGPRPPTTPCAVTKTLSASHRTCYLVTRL
# protocol_summary: Inhibition of rat ASIC3 assessed as inhibition of peak current by patch clamp electrophysiology
measure_name: pIC50
The scale used: pIC50 is minus the common logarithm of the concentration in molar units.

stdin: // fetch pIC50 given entry `NC(N)=NC(=O)c1ncc(-c2cccc(-c3ccccc3)c2)nc1N`
stdout: 6.02

---

# protocol_summary: Plasma concentration in Sprague-Dawley rat after 30 mins
# Assay type: ADME, cell-free
measure_name: concentration at 0.5 h (nM)
All answers are understood in nM, so give the number only.

stdin: Read off the recorded concentration at 0.5 h for `NC(N)=NC(=O)c1ncc(-c2cccc(-c3ccccc3)c2)nc1N`
stdout: 2900

---

# test_target: UniProt:Q9UHC3
# protocol_summary: Inhibition of ASIC3 at 20 uM assessed as inhibition of peak current by patch clamp electrophysiology relative to baseline
# maps each entry to its inhibition
Quick reminder: number only, in %, skip the unit.

Solved cases (3 shown):
structure_smiles_string: NC(N)=NC(=O)c1nc(Cl)c(Oc2ccc3ccccc3c2)nc1N
measure_name: inhibition
result_number: 91

structure_smiles_string: NC(N)=NC(=O)c1nc(Cl)c(N2CCCCC2)nc1N
measure_name: inhibition
result_number: 85

structure_smiles_string: CN(C)c1nc(N)c(C(=O)NC(=N)N)nc1Cl
measure_name: inhibition
result_number: 91

stdin: Specify reported inhibition for the compound shown: `Cc1cc(C)cc(-c2cnc(C(=O)N=C(N)N)c(N)n2)c1`
stdout: 95

stdin: Answer with the recorded inhibition for the compound listed here: `NC(N)=NC(=O)c1nc(Cl)c(NC2CC2)nc1N`
stdout: 78

stdin: Return value of inhibition for input `NC(N)=NC(=O)c1nc(Cl)c(NCc2cccc(F)c2)nc1N` , no commentary.
stdout: 90

---

# test_target: UniProtKB Q9UHC3
# Sequence (whole entry): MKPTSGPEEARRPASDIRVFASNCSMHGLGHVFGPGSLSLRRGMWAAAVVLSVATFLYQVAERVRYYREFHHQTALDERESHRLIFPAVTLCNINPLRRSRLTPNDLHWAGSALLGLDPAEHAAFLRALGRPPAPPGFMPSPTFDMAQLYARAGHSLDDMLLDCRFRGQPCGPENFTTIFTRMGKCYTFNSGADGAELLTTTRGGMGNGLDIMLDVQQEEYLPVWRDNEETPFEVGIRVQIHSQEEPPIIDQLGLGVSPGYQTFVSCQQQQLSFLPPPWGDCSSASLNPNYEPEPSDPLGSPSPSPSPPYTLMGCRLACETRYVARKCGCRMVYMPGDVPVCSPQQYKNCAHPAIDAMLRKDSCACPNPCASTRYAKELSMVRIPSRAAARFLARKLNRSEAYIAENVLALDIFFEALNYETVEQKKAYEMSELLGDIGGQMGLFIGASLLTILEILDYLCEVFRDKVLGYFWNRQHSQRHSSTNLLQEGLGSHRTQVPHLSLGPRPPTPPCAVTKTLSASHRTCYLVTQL
# protocol_summary: Inhibition of ASIC3 at 20 uM assessed as inhibition of peak current by patch clamp electrophysiology relative to baseline
inhibition for assorted compounds
Respond numerically; units are % and should not be typed.

Here are 2 compounds together with their reported answers.
compound: CN1CCN(c2nc(N)c(C(=O)N=C(N)N)nc2Cl)CC1
measure_name: inhibition
result_number: 51
//
compound: C=CCNc1nc(N)c(C(=O)N=C(N)N)nc1Cl
measure_name: inhibition
result_number: 78

stdin: Please give the documented inhibition of `NC(N)=NC(=O)c1nc(Cl)c(NCc2ccc3ccccc3c2)nc1N`
stdout: 93

stdin: Answer with the recorded inhibition for the compound listed here: N=C(N)NC(=O)c1nc(Cl)c(N)nc1N [AMILORIDE]
stdout: 65
